Catalogue of log10 IC50 readings, one per entry.
# TARGET: glucosylceramide synthase (GCS) (Homo sapiens (Human))
# MEASUREMENT_PROTOCOL: Evaluation of inhibitory activities against GCS (enzyme reaction with A549 cell lysate, NBD C6-ceramide, HPLC fluorescence)
# CONDITION_NOTES: GCS activity in A549 cell lysate, 37° C. for 90 minutes
MEASUREMENT_TYPE: log10 IC50 (log10 of the value in nM)

compound="O=C(NC1CCCc2ccc(-c3cc(F)ccc3F)cc21)O[C@@H]1CN2CCC1CC2 (some centres unmarked)" reported_value=0.86
compound="O=C(NC1c2cc(-c3ccccc3F)ccc2CCC12CC2)O[C@@H]1CN2CCC1CC2 (some centres unmarked)" reported_value=1.00
compound="O=C(NC1c2ccc(-c3ccc(Cl)cc3)cc2CCC12CC2)O[C@@H]1CN2CCC1CC2 (some centres unmarked)" reported_value=1.14
compound="CCCCOc1c(C)cc(-c2ccc3c(c2)CCC(C)(C)C3NC(=O)O[C@@H]2CN3CCC2CC3)cc1C (some centres unmarked)" reported_value=0.00
compound="CC1(C)CCc2ccc(-c3ccc(OC(F)(F)F)cc3)cc2C1NC(=O)O[C@@H]1CN2CCC1CC2 (some centres unmarked)" reported_value=0.92
compound="CC1(C)CCc2ccc(-c3ccc(Cl)cc3)cc2C1NC(=O)O[C@@H]1CN2CCC1CC2 (some centres unmarked)" reported_value=0.76
compound="CC1(C)CCc2cc(-c3ccc(C(F)(F)F)cc3)ccc2C1NC(=O)O[C@@H]1CN2CCC1CC2 (some centres unmarked)" reported_value=0.54
compound="O=C(NC1CCCc2cc(-c3cc(Cl)ccc3Cl)ccc21)O[C@@H]1CN2CCC1CC2 (some centres unmarked)" reported_value=0.26

###

# TARGET: UniProt:Q16739
# MEASUREMENT_PROTOCOL: Evaluation of inhibitory activities against GCS (enzyme reaction with A549 cell lysate, NBD C6-ceramide, HPLC fluorescence)
# CONDITION_NOTES: GCS activity in A549 cell lysate, 37° C. for 90 minutes
MEASUREMENT_TYPE: IC50 (nM)

compound="O=C(NC1CCCc2cc(-c3ccccc3C(F)(F)F)ccc21)O[C@@H]1CN2CCC1CC2 (stereo partly shown)" unit_spec=nM reported_value=8.18
compound="O=C(NC1CCCc2cc(-c3cccc(C(F)(F)F)c3)ccc21)O[C@@H]1CN2CCC1CC2 (stereo partly shown)" unit_spec=nM reported_value=1.69
compound="CC1(C)CCc2cc(-c3cccc(OC(F)(F)F)c3)ccc2C1NC(=O)O[C@@H]1CN2CCC1CC2 (stereo partly shown)" unit_spec=nM reported_value=1.76
compound="COCOc1ccccc1-c1ccc2c(c1)C(NC(=O)O[C@@H]1CN3CCC1CC3)C(C)(C)CC2 (stereo partly shown)" unit_spec=nM reported_value=9.41

###

Documented pIC50 across a set of molecules
# TARGET: glucosylceramide synthase (GCS) (Homo sapiens (Human), UniProt Q16739)
# Sequence (Q16739 whole entry, looked up): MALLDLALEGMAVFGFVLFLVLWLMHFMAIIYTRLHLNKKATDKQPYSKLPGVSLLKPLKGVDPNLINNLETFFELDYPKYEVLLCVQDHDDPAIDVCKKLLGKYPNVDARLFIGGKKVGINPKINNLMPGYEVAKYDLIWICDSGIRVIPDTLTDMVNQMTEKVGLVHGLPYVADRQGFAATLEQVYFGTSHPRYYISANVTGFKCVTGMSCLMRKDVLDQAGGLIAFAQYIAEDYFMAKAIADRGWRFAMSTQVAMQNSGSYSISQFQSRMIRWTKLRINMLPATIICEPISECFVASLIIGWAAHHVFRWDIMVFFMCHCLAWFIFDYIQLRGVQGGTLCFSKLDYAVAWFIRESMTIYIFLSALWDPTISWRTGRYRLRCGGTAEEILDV
# MEASUREMENT_PROTOCOL: Evaluation of inhibitory activities against GCS (enzyme reaction with A549 cell lysate, NBD C6-ceramide, HPLC fluorescence)
# CONDITION_NOTES: GCS activity in A549 cell lysate, 37° C. for 90 minutes
pIC50: −log10 of the molar value.
MEASUREMENT_TYPE: pIC50

molecule="CCOc1ccc(-c2ccc3c(c2)CCC2(CC2)C3NC(=O)O[C@@H]2CN3CCC2CC3)cc1 (some centres unmarked)" measurement_type=pIC50 reported_value=9.00
molecule="CCOc1ccccc1-c1ccc2c(c1)C(NC(=O)O[C@@H]1CN3CCC1CC3)CCC2 (some centres unmarked)" measurement_type=pIC50 reported_value=7.73
molecule="O=C(NC1CCCc2ccc(-c3cc(F)c(F)cc3F)cc21)O[C@@H]1CN2CCC1CC2 (some centres unmarked)" measurement_type=pIC50 reported_value=7.33
molecule="COCOc1cccc(-c2ccc3c(c2)C(NC(=O)O[C@@H]2CN4CCC2CC4)C(C)(C)CC3)c1 (some centres unmarked)" measurement_type=pIC50 reported_value=7.39
molecule="COCCOc1ccccc1-c1ccc2c(c1)C(NC(=O)O[C@@H]1CN3CCC1CC3)C(C)(C)CC2 (some centres unmarked)" measurement_type=pIC50 reported_value=7.71
molecule="COc1ccc(-c2ccc3c(c2)C(NC(=O)O[C@@H]2CN4CCC2CC4)CCC3)cc1 (some centres unmarked)" measurement_type=pIC50 reported_value=7.81
molecule="CC1(C)CCc2ccc(-c3ccc(F)cc3)cc2C1NC(=O)O[C@@H]1CN2CCC1CC2 (some centres unmarked)" measurement_type=pIC50 reported_value=8.14
molecule="CC(C)(C)c1cccc(-c2ccc3c(c2)CCCC3NC(=O)O[C@@H]2CN3CCC2CC3)c1 (some centres unmarked)" measurement_type=pIC50 reported_value=8.54

###

# TARGET: UniProt Q16739
# MEASUREMENT_PROTOCOL: Evaluation of inhibitory activities against GCS (enzyme reaction with A549 cell lysate, NBD C6-ceramide, HPLC fluorescence)
# CONDITION_NOTES: GCS activity in A549 cell lysate, 37° C. for 90 minutes
pIC50: −log10 of the molar value.
MEASUREMENT_TYPE: pIC50

compound="CC1(C)CCc2cc(-c3cc(Cl)cc(Cl)c3)ccc2C1NC(=O)O[C@@H]1CN2CCC1CC2 (stereo partly shown) [Example 107]" measurement_type=pIC50 reported_value=8.23
compound="CC1(C)CCc2cc(-c3cc(F)ccc3F)ccc2C1NC(=O)O[C@@H]1CN2CCC1CC2 (stereo partly shown) [Example 103]" measurement_type=pIC50 reported_value=9.02
compound="COCOc1ccccc1-c1ccc2c(c1)CCC(C)(C)C2NC(=O)O[C@@H]1CN2CCC1CC2 (stereo partly shown) [Example 115]" measurement_type=pIC50 reported_value=8.93
compound="CC(C)(C)c1cccc(-c2ccc3c(c2)CCC2(CC2)C3NC(=O)O[C@@H]2CN3CCC2CC3)c1 (stereo partly shown) [Example 204]" measurement_type=pIC50 reported_value=7.42
compound="CC1(C)CCc2cc(-c3ccc(OC(F)F)cc3)ccc2C1NC(=O)O[C@@H]1CN2CCC1CC2 (stereo partly shown) [Example 99]" measurement_type=pIC50 reported_value=8.78
compound="COc1ccc(-c2ccc3c(c2)CCC2(CC2)C3NC(=O)O[C@@H]2CN3CCC2CC3)cc1 (stereo partly shown) [Example 215]" measurement_type=pIC50 reported_value=8.63
compound="O=C(NC1CCCc2cc(-c3ccc(C(F)(F)F)cc3)ccc21)O[C@@H]1CN2CCC1CC2 (stereo partly shown) [Example 3]" measurement_type=pIC50 reported_value=8.64
compound="O=C(NC1CCCc2ccc(-c3cccnc3)cc21)O[C@@H]1CN2CCC1CC2 (stereo partly shown) [Example 73]" measurement_type=pIC50 reported_value=6.44
compound="COc1ccc(-c2ccc3c(c2)CCCC3NC(=O)O[C@@H]2CN3CCC2CC3)cc1 (stereo partly shown) [Example 46]" measurement_type=pIC50 reported_value=7.89
compound="O=C(NC1CCCc2cc(-c3cncnc3)ccc21)O[C@@H]1CN2CCC1CC2 (stereo partly shown) [Example 53]" measurement_type=pIC50 reported_value=7.06
compound="O=C(NC1CCCc2ccc(-c3cc(Cl)ccc3Cl)cc21)O[C@@H]1CN2CCC1CC2 (stereo partly shown) [Example 71]" measurement_type=pIC50 reported_value=7.64
compound="COc1ccc(-c2ccc3c(c2)CCC2(CC2)C3NC(=O)O[C@@H]2CN3CCC2CC3)c(Cl)c1 (stereo partly shown) [Example 200]" measurement_type=pIC50 reported_value=8.05
compound="CC(C)Oc1ccc(-c2ccc3c(c2)CCC(C)(C)C3NC(=O)O[C@@H]2CN3CCC2CC3)cc1F (stereo partly shown) [Example 142]" measurement_type=pIC50 reported_value=8.95
compound="CC(C)Cc1ccc(-c2ccc3c(c2)CCC2(CC2)C3NC(=O)O[C@@H]2CN3CCC2CC3)cc1 (stereo partly shown) [Example 224]" measurement_type=pIC50 reported_value=8.82
compound="COc1ccc(-c2ccc3c(c2)CCC2(CC2)C3NC(=O)O[C@@H]2CN3CCC2CC3)cc1F (stereo partly shown) [Example 202]" measurement_type=pIC50 reported_value=8.94
compound="O=C(NC1CCCc2cc(-c3ccccc3Cl)ccc21)O[C@@H]1CN2CCC1CC2 (stereo partly shown) [Example 10]" measurement_type=pIC50 reported_value=8.59
compound="CC1(C)CCc2ccc(-c3cccc(Cl)c3)cc2C1NC(=O)O[C@@H]1CN2CCC1CC2 (stereo partly shown) [Example 156]" measurement_type=pIC50 reported_value=7.71
compound="O=C(NC1CCCc2cc(-c3cc(F)cc(F)c3)ccc21)O[C@@H]1CN2CCC1CC2 (stereo partly shown) [Example 17]" measurement_type=pIC50 reported_value=8.24
compound="COc1cccc(OC)c1-c1ccc2c(c1)CCC1(CC1)C2NC(=O)O[C@@H]1CN2CCC1CC2 (stereo partly shown) [Example 212]" measurement_type=pIC50 reported_value=6.98
compound="COCOc1cccc(-c2ccc3c(c2)CCC2(CC2)C3NC(=O)O[C@@H]2CN3CCC2CC3)c1 (stereo partly shown) [Example 198]" measurement_type=pIC50 reported_value=8.29
compound="O=C(NC1CCCc2cc(-c3cccc(F)c3F)ccc21)O[C@@H]1CN2CCC1CC2 (stereo partly shown) [Example 19]" measurement_type=pIC50 reported_value=8.46
compound="CC1(C)CCc2ccc(-c3ccc(OC(F)F)cc3)cc2C1NC(=O)O[C@@H]1CN2CCC1CC2 (stereo partly shown) [Example 164]" measurement_type=pIC50 reported_value=8.03
compound="CC1(C)CCc2cc(-c3cc(Cl)ccc3Cl)ccc2C1NC(=O)O[C@@H]1CN2CCC1CC2 (stereo partly shown) [Example 105]" measurement_type=pIC50 reported_value=8.86
compound="O=C(NC1c2cc(-c3ccc(OC(F)(F)F)cc3)ccc2CCC12CC2)O[C@@H]1CN2CCC1CC2 (stereo partly shown) [Example 174]" measurement_type=pIC50 reported_value=8.36
compound="CN(C)c1cccc(-c2ccc3c(c2)CCC(C)(C)C3NC(=O)O[C@@H]2CN3CCC2CC3)c1 (stereo partly shown) [Example 131]" measurement_type=pIC50 reported_value=8.83
compound="CCCOc1ccc(-c2ccc3c(c2)CCC(C)(C)C3NC(=O)O[C@@H]2CN3CCC2CC3)cc1Cl (stereo partly shown) [Example 141]" measurement_type=pIC50 reported_value=8.82
compound="CCCc1ccc(-c2ccc3c(c2)CCCC3NC(=O)O[C@@H]2CN3CCC2CC3)cc1 (stereo partly shown) [Example 32]" measurement_type=pIC50 reported_value=8.08
compound="O=C(NC1c2ccc(-c3cccc(C(F)F)c3)cc2CCC12CC2)O[C@@H]1CN2CCC1CC2 (stereo partly shown) [Example 206]" measurement_type=pIC50 reported_value=7.99
compound="O=C(NC1CCCc2cc(-c3ccc(OC(F)(F)F)cc3)ccc21)O[C@@H]1CN2CCC1CC2 (stereo partly shown) [Example 4]" measurement_type=pIC50 reported_value=8.85
compound="O=C(NC1CCCc2cc(-c3ccccc3F)ccc21)O[C@@H]1CN2CCC1CC2 (stereo partly shown) [Example 9]" measurement_type=pIC50 reported_value=8.58
compound="CC1(C)CCc2ccc(-c3cccc(OC(F)(F)F)c3)cc2C1NC(=O)O[C@@H]1CN2CCC1CC2 (stereo partly shown) [Example 158]" measurement_type=pIC50 reported_value=7.47
